B1: HDV Ribozyme (parent)
chain: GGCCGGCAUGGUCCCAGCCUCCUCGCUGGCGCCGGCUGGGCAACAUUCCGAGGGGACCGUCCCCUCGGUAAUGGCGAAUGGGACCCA

variants of: B1; experiment: self-cleavage, relative activity (ratio to wild type); higher = more cleavage; co-transcriptional
readout: self-cleavage
Answers are plain numbers.

# example entries with known answers
> print(dat)
   variant.code  readout.number
1     C64A G76C            0.95
2     C14U C22G           0.155
3      G1A C21G          0.0489

Provide reported self-cleavage for each item, in the same order as listed.
1. C15G C24U
2. G40A U65G
3. C18A C62U
4. C36A C61G
5. C19A C62G
6. C22G G68A
7. G11U U23C

Output:
1. 0.196
2. 0.601
3. 0.264
4. 0.269
5. 0.104
6. 0.132
7. 0.554

Provide self-cleavage values for the following items, in order.
1. C36A A87G
2. A8G G50C
3. G38U C58U
4. G6C C61A

Output:
[0.125, 1.17, 0.295, 0.161]

Quick batch: self-cleavage for everything below.
1. C14G A78U
2. C15A U27C
3. G17C G39U

Output:
1: 0.185; 2: 0.277; 3: 0.108

# per-item lookup of self-cleavage; items listed below
1. G59A C63U
2. C18G C66G
3. G11A A83G
4. C62U U65C
5. U12A C33G

Output:
1: 1.13; 2: 0.0665; 3: 0.0831; 4: 0.988; 5: 0
